# maps each entry to its pIC50
ASSAYED SYSTEM: Epidermal growth factor receptor (Homo sapiens, UniProt P00533, L858R/T790M)
Sequence (P00533 25-1210 T790M/L858R limits assumed): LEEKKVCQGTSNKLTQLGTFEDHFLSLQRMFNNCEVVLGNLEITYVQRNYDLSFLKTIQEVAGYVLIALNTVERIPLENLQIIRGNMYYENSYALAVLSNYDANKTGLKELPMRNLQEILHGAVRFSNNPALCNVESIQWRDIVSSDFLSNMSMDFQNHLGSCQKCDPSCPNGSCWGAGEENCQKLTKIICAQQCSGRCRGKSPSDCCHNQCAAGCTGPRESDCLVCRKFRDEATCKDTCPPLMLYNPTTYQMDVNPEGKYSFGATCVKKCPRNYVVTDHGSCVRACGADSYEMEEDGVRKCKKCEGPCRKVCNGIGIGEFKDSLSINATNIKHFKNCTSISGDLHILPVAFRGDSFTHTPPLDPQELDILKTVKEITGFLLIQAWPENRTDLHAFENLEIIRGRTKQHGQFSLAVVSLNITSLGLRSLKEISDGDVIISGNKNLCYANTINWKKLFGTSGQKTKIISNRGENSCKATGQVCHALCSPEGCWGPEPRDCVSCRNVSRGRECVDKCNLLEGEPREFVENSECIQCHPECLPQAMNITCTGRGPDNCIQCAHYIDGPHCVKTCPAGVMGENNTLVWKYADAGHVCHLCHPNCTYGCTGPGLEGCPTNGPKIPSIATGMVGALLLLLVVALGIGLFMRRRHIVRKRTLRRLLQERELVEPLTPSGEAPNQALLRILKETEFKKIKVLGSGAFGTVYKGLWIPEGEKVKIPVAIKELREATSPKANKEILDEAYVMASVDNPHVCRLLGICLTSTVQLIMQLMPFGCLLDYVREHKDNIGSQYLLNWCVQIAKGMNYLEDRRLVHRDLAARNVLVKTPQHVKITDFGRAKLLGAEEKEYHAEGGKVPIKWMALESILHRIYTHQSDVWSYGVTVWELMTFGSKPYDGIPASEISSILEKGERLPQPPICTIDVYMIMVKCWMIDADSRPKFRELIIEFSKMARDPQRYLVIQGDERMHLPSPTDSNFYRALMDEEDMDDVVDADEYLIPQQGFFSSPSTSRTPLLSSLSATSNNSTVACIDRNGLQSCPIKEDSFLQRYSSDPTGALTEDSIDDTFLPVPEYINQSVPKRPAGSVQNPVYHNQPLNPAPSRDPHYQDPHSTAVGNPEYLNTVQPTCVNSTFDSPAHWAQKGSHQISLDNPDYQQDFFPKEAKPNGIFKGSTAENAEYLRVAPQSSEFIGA
ASSAY PROCEDURE: Inhibition of recombinant human GST-tagged EGFR L858R/T790M double mutant cytoplasmic domain (668 to 1210 residues) expressed in baculovirus expression system using FAM-labelled peptide as substrate pretreated for 10 mins followed by substrate addition measured after 1 hr by mobility shift assay
TEST CONDITIONS: read-out: IC50
Would you please state pIC50, meaning minus log10 of the concentration in mol/L, as a bare number?

C=CC(=O)Nc1cc(Nc2ncc3ncn(-c4ccc(Cl)cc4)c3n2)c(OC)cc1N(C)CCN(C)C: 8.41
C=CC(=O)Nc1cc(Nc2ncc3ncn(-c4ccc(F)c(Br)c4)c3n2)c(OC)cc1N(C)CCN(C)C: 8.64

For the next question, use this compound.
## Input Give pIC50 (Epidermal growth factor receptor (Homo sapiens, UniProt P00533, L858R/T790M)) of the following compound: `C=CC(=O)Nc1cc(Nc2ncc3ncn(-c4ccc(I)cc4)c3n2)c(OC)cc1N(C)CCN(C)C`
## Output 8.46

###

Test system: NCI-H1975
ASSAY PROCEDURE: Cytotoxicity against human NCI-H1975 cells expressing EGFR L858R/T790M double mutant after 72 hrs by MTT assay
Type: functional, cell-based
TEST CONDITIONS: NCI-H1975, 72 h
# maps each entry to its pIC50
Would you please state pIC50, meaning minus log10 of the concentration in mol/L, as a bare number?

## Input Reported pIC50 for `C=CC(=O)Nc1cc(Nc2ncc3ncn(-c4ccc(I)cc4)c3n2)c(OC)cc1N1CCN(C)CC1` : what is it?
## Output 5.14

## Input Also, `C=CC(=O)Nc1cc(Nc2ncc3ncn(-c4ccc(I)cc4)c3n2)c(OC)cc1N1CCOCC1` please.
## Output 4.53

## Input Also, `C=CC(=O)Nc1cc(Nc2ncc3ncn(-c4ccc(F)cc4)c3n2)c(OC)cc1N(C)CCN(C)C` please.
## Output 7.21

## Input Also, `C=CC(=O)Nc1cc(Nc2ncc3ncn(-c4ccc(F)c(Cl)c4)c3n2)c(OC)cc1N(C)CCN(C)C` please.
## Output 7.00

## Input Also, `C=CC(=O)Nc1cc(Nc2ncc3ncn(-c4ccc(OC)cc4)c3n2)c(OC)cc1N(C)CCN(C)C` please.
## Output 6.80

###

# maps each entry to its IC50
ASSAYED SYSTEM: Epidermal growth factor receptor (Homo sapiens, UniProt P00533, T790M)
ASSAY PROCEDURE: Inhibition of recombinant human GST-tagged EGFR T790M mutant cytoplasmic domain (668 to 1210 residues) expressed in baculovirus expression system using FAM-labelled peptide as substrate pretreated for 10 mins followed by substrate addition measured after 1 hr by mobility shift assay
Kindly provide the numeric value in nM only, without the unit symbol.

Study these solved cases before continuing.
C=CC(=O)Nc1cc(Nc2ncc3ncn(-c4ccc(Cl)cc4)c3n2)c(OC)cc1N(C)CCN(C)C: 6.4
C=CC(=O)Nc1cc(Nc2ncc3nc(Nc4ccccc4)n(C)c3n2)c(OC)cc1N(C)CCN(C)C: 3.5
C=CC(=O)Nc1cc(Nc2ncc3ncn(-c4ccc(F)cc4)c3n2)c(OC)cc1N(C)CCN(C)C: 5.8

For the next question, use this compound.
## Input Reported IC50 for `C=CC(=O)Nc1cc(Nc2ncc3ncn(-c4ccc(I)cc4)c3n2)c(OC)cc1N(C)CCN(C)C` : what is it?
## Output 4.7
